experimental_protocol: NCI Yeast Anticancer Drug Screen. Data for the rad50 strain (AID 155);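 further: 0% = growth of vehicle-only cultures of the same strain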
assay_context: S. cerevisiae rad50 strain growth inhibition; at 50.0 µM; hits give high values
About 79,000 compounds went through this panel and 15% of them were active in at least one assay; those are over-represented in the sample as a whole. Activity calls are given as the source filed them. No stated cut-off is given here; in the data, active means growth inhibition above about 70%; inactive means the rest. Where a SMILES comes first, the peptide text is derived from it. [ ]: non-standard residue; d: D form. The star is where a group is joined. ξ: configuration not given here. Cbz = O=C(OCc1ccccc1)*; ξNva = CCCC(N)C(=O)O
test_readout: growth inhibition

>>> recorded_measurement("CC(C)CC(NC(=O)OC(C)(C)C)C(=O)O (configuration not stated)")
"-44.6% (inactive)"
>>> recorded_measurement("CC(C)N(CCn1c2c3ccccc3ccc2c2oc(=O)c3ccccc3c21)C(C)C")
"13.8% (inactive)"
>>> recorded_measurement("Fc1ccc(/C=C/c2ccc(/C=C/c3ccc(F)cc3)nn2)cc1")
"18.4% (inactive)"
>>> recorded_measurement("COc1ccc(C(Cc2cc(OC)c(OC)cc2Br)NC=O)cc1OC (configuration not stated)")
"0.3% (inactive)"
>>> recorded_measurement("Cc1ccc(CNC(=S)Nc2ccc(F)cc2)c(C)c1")
"-7.6% (inactive)"
>>> recorded_measurement("CCOC(=O)[C@H]1Nc2ccc(Cl)cc2[C@H]2c3ccccc3O[C@H]21")
"4.85% (inactive)"
>>> recorded_measurement("O=C(O)Cc1cc(O)c(CC(=O)O)cc1O")
"-11.9% (inactive)"
>>> recorded_measurement("CCCNC(=O)Oc1ccccc1C(N)=O")
"-3.35% (inactive)"
>>> recorded_measurement("O=C(Nc1ccc(Cl)cc1[N+](=O)[O-])Oc1ccc(-c2ccccc2)cc1")
"23.4% (inactive)"
>>> recorded_measurement("Nc1ncnc2c1[nH]c(=S)n2C1OC(CO)C(O)C1O (configuration not stated)")
"14.4% (inactive)"
>>> recorded_measurement("COc1ccc(C2(C=O)CN(C)CN2)cc1 (configuration not stated)")
"-7.2% (inactive)"
>>> recorded_measurement("OCC(I)CO")
"15.8% (inactive)"
>>> recorded_measurement("COc1ccc2c(c1)CCN1CCCc3ccc(OC)cc3C21 (configuration not stated)")
"18.9% (inactive)"
>>> recorded_measurement("ClCCOCOc1ccc2ccccc2c1")
"29.6% (inactive)"
>>> recorded_measurement("Cc1cccc(C)c1Nc1nc(C)c(C(=O)CC(=O)C(=O)Nc2c(C(C)C)cccc2C(C)C)s1")
"18.3% (inactive)"
>>> recorded_measurement("c1ccc(Cn2c(-c3ccccc3)c[n+]3ccccc23)cc1")
"-11.4% (inactive)"
>>> recorded_measurement("CCOC(=O)CCC(C(=O)c1cccnc1)c1ccccn1 (configuration not stated)")
"-4% (inactive)"
>>> recorded_measurement("O=C(O)CS(=O)(=O)Cc1ccccc1")
"-12.7% (inactive)"
>>> recorded_measurement("COc1cccc(NCC(=O)Nn2c(-c3ccccc3)nc3ccccc3c2=O)c1")
"-37.5% (inactive)"
>>> recorded_measurement("O=c1c2ccccc2sc2nc(CCl)nn12")
"6.2% (inactive)"
>>> recorded_measurement("N/N=C(\\N)N(Cc1ccccc1)c1ccccc1")
"10.3% (inactive)"
>>> recorded_measurement("CN(C)C(=O)Nc1cccc(OC(=O)NC2CCCCCCC2)c1")
"2.65% (inactive)"
>>> recorded_measurement("Cc1cccc(CP(Cc2cccc(C)c2)CC2(Cp3c4ccccc4c4ccccc43)COC2)c1")
"18% (inactive)"
>>> recorded_measurement("CC(=O)Cc1ccc([N+](=O)[O-])cc1")
"-0.1% (inactive)"
>>> recorded_measurement("O=C1c2ccccc2CC12Cc1ccccc1C2")
"2.05% (inactive)"
>>> recorded_measurement("O=C(O)/C=C/C(=O)Nc1cccc2c1Cc1ccccc1-2")
"-7.2% (inactive)"
>>> recorded_measurement("Cc1cccc(NC(=O)Nc2ccccc2)n1")
"4.65% (inactive)"
>>> recorded_measurement("CN(C)c1ccc(CC2Cc3ccccc3C2O)cc1 (configuration not stated)")
"6.75% (inactive)"
>>> recorded_measurement("CCCC(NC(=O)CNC(=O)OCc1ccccc1)C(=O)O (stereo not drawn) (Cbz-Gly-[ξNva]-OH)")
"31.6% (inactive)"
>>> recorded_measurement("C1CSCC2(COC2)CSCCSCC2(COC2)CS1")
"-23.1% (inactive)"
>>> recorded_measurement("O=C(/C=C/c1cccs1)c1ccc([N+](=O)[O-])cc1")
"-59% (inactive)"
>>> recorded_measurement("CC1OC(n2ccc(=O)[nH]c2=O)C=C(OC(=O)c2ccccc2)C1=O (configuration not stated)")
"12.2% (inactive)"
>>> recorded_measurement("CC1CN(C(=S)Nc2ccccc2)CCN1c1ccccc1 (configuration not stated)")
"4.15% (inactive)"
>>> recorded_measurement("O=C1C2C(C(=O)N1c1ccccc1)C1(c3cccnc3)NC(=O)C2(Cc2cccnc2)c2ccccc21 (configuration not stated)")
"12.6% (inactive)"
>>> recorded_measurement("NC(N)=NS(=O)(=O)c1ccc(NC(=O)c2ccc(Cl)c3c(Nc4ccc(S(=O)(=O)N=C(N)N)cc4)c4ccccc4nc23)cc1")
"32.2% (inactive)"
>>> recorded_measurement("CCCCCCCCC(=O)OCC(=O)N(C)C")
"15.6% (inactive)"
>>> recorded_measurement("CCCNc1nc(C)nc2[nH]cc(C)c12")
"7.35% (inactive)"
>>> recorded_measurement("NC(=O)NC(=O)Cc1ccc([N+](=O)[O-])cc1")
"5.1% (inactive)"
>>> recorded_measurement("CC(=O)NC1c2ccccc2C(C)(C)C12CCC1(CC2)OCCO1 (configuration not stated)")
"-33.5% (inactive)"
>>> recorded_measurement("O=C(O)C(Br)C(Br)C(=O)Nc1cccc(C(F)(F)F)c1 (configuration not stated)")
"17.4% (inactive)"
>>> recorded_measurement("[N-]=[N+]=NC12CC3CC4C5CC(CC41)CC2[C@H]5C3")
"13.1% (inactive)"
>>> recorded_measurement("COc1c2occc2c(S(=O)(=O)O)c2ccc(=O)oc12")
"-12.5% (inactive)"
>>> recorded_measurement("COC(=O)C1(C2(C(=O)OC)NC(C)=C(c3ccccc3)C(=O)O2)NC(C)=C(c2ccccc2)C(=O)O1 (configuration not stated)")
"15.2% (inactive)"
>>> recorded_measurement("O=C(O)CCCCC1CCSS1 (configuration not stated)")
"32.2% (inactive)"
>>> recorded_measurement("COc1cc(O)c(C(=O)CC(C)=O)c(OC)c1")
"-14.9% (inactive)"
>>> recorded_measurement("CC(C)=CCC/C(C)=C\\CC/C(C)=C/CO")
"-52.5% (inactive)"
>>> recorded_measurement("CCOC(=O)CN1CN(CCc2ccccc2)CC(C)(C)C1OCC (configuration not stated)")
"37.1% (inactive)"
